Sourced from patent US10618964B2

target: soluble IL-6R in cynomolgous plasma (cynomolgus monkey, UniProt A0A2K5WN54); test: ELISA 2, periplasmic extract; competitor IL-6; cyno plasma
OBSERVABLE: OD450 ratio sample/blank
Returns: the value as a bare number; no unit string appended.

BINDER: IL6RPMP103B2 (VHH) VHH: EVQLVESGGGLVQPGGSLRLSCAASGSTFSINMMAWYCQAPGKQRELVASISSGGGINYADSVKGRFTISRDYAENSVDLQMNSLKPEDTAVYYCNARGTYLNGDHYSTNYNSWGQGTQVTVSS
OD450 ratio sample/blank: 0.81

Can you share its OD450 ratio sample/blank? I mean this binder: IL6RPMP120G6 (VHH) VHH: EVQLVESGGDLVQTGGSLRLSCAASGITVSDRAMGWYRQAPGKQREMVAGVSRGGMTSYADSVKGRLTISRDNAKNSVYLQMNSLNPEDTAVYYCSAYYRYGSSVPQYWGQGTQVTVSS
0.0289

Can you share its OD450 ratio sample/blank? I mean this binder: IL6RPMP101B2 (VHH) VHH: EVQLVESGGGLVQAGGSLRLSCTASGRTFTDYDMGWFRQAPGKEREVVAIIDTNGDNTLTVGSVKGRFAISSDNAKNTVYLQMNSLLPEDTAVYTCAAGAWSALRRSVANYWGQGTQVTVSS
0.727

Can you share its OD450 ratio sample/blank? I mean this binder: IL6RPMP103H9 (VHH) VHH: EVQLVESGGGLVQPGGSLRLSCAASKSIFDINAMYWHRQAPGKQRESVASITSGGMRNYADSVKDRFTISKDNAKNTVYLQMNGLKPDDTAVYYCGLGRYEGGVWRDYWGQGTQVTVSS
0.263
